Ca^2+ current shown as a percentage: recorded values
Target: N-type calcium channels (Mus musculus, UniProt O55017)
Assay type: cell-based, Swiss mice
Non-standard residues stand in square brackets, D forms with d. No end group written: not given here. Tle = CC(C)(C)[C@H](N)C(=O)O; Nva = CCC[C@H](N)C(=O)O

| sequence_string | target_of_assay | Ca^2+ current shown as a percentage |
| --- | --- | --- |
| YGRKKRRQRRRALSSIESDV (synthetic 1994 peptide Tat-NR2B9c K to A) [Peptide 1994] | N-type calcium channels (Mus musculus, UniProt O55017) | 77+/−1.8% |
| YGRKKRRQRRRKLSSIESDV [1987] ([dY]G[dR][dK][dK][dR][dR][dQ][dR][dR][dR][dK][dL][dS][dS][dI][dE][dS][dD][dV]) [Peptide 1987, D-isomer of Tat-NR2B9c] | N-type calcium channels (Mus musculus, UniProt O55017) | 82+/−2.2% |
| KLSSIESDV (synthetic 1991 peptide 2B9c) [Peptide 1991, peptide 2B9c, the C-terminal portion of Tat-NR2B9c] | N-type calcium channels (Mus musculus, UniProt O55017) | 94+/−1.7% |
| YGRKKRRQRRR [Peptide 1990] | N-type calcium channels (Mus musculus, UniProt O55017) | 57+/−1.6% |
| YGRKKRRQRRRKLSSIEADA (synthetic 1992 peptide Tat-NR2B9c-AA) [Peptide 1992] | N-type calcium channels (Mus musculus, UniProt O55017) | 74+/−2.4% |
| FGRKKRRQRRRALSSIESDV (synthetic 1995 peptide F-Tat-NR2B9c K to A) [Peptide 1995] | N-type calcium channels (Mus musculus, UniProt O55017) | 97+/−0.2% |
| YGRKKRRQRRRKLSSIESDX [1976] (YGRKKRRQRRRKLSSIESD[Nva]) [Peptide 1976, …X where X=norvaline] | N-type calcium channels (Mus musculus, UniProt O55017) | 66+/−3.4% |
| YGRKKRRQRRRKLSSIESDX [1977] (YGRKKRRQRRRKLSSIESD[Tle]) [Peptide 1977, …X where X=L-t-butyl-glycine] | N-type calcium channels (Mus musculus, UniProt O55017) | 65+/−5.1% |
